-TΔS values by entry
- target under test: UniProt P0A988
- Sequence (P0A988 whole entry): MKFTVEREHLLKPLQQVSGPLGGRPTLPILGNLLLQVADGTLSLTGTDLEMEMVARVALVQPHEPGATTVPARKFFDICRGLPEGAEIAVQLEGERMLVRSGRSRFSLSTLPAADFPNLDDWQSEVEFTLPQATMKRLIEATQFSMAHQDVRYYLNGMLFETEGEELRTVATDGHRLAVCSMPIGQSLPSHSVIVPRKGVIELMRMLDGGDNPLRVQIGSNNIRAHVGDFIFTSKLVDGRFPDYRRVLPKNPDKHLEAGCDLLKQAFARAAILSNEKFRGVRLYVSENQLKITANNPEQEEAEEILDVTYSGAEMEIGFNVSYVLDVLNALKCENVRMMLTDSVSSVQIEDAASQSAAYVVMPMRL
- experiment summary: Isothermal Titration Calorimetry (ITC/kinITC), wild-type sliding clamp
- Assay type: binding, E. coli
- measurement context: R1 buffer, 25 °C (298.15K)
Square brackets hold non-standard residues; d marks the D form. Peptide text beside a SMILES is read from it. * marks the point of attachment. Cha = N[C@@H](CC1CCCCC1)C(=O)O; Crotonyl(E) = C/C=C/C(=O)*; Dap = NC[C@H](N)C(=O)O; Acryloyl = C=CC(=O)*; ClAc = O=C(CCl)*; X1 = CC#CC(=O)*

C/C=C/C(=O)NC[C@H](NC(=O)[C@H](CC1CCCCC1)NC(=O)[C@H](CCC(N)=O)NC(C)=O)C(=O)N[C@@H](CC(C)C)C(=O)N[C@@H](Cc1ccccc1)C(=O)O [Peptide 3, Ac-Gln-Cha-Dap(but-2-enamide)-Leu-Phe-OH] (Ac-Q[Cha][Dap](Crotonyl(E))LF-OH) :: 1.1 (± 0.1) kcal/mol
CC#CC(=O)NC[C@H](NC(=O)[C@H](CC1CCCCC1)NC(=O)[C@H](CCC(N)=O)NC(C)=O)C(=O)N[C@@H](CC(C)C)C(=O)N[C@@H](Cc1ccccc1)C(=O)O [Peptide 5, Ac-Gln-Cha-Dap(but-2-ynamide)-Leu-Phe-OH] (Ac-Q[Cha][Dap](X1)LF-OH) :: 2.1 (± 0.1) kcal/mol

Look up and report measured -TΔS for this entry: CC(=O)N[C@@H](CCC(N)=O)C(=O)N[C@@H](CC1CCCCC1)C(=O)N[C@@H](CNC(=O)CCl)C(=O)N[C@@H](CC(C)C)C(=O)N[C@@H](Cc1ccccc1)C(=O)O [Peptide 2] (Ac-Q[Cha][Dap](ClAc)LF-OH)
2.5 (± 0.4) kcal/mol

Look up and report measured -TΔS for this entry: C=CC(=O)NC[C@H](NC(=O)[C@H](CC1CCCCC1)NC(=O)[C@H](CCC(N)=O)NC(C)=O)C(=O)N[C@@H](CC(C)C)C(=O)N[C@@H](Cc1ccccc1)C(=O)O [Peptide 1, Ac-Gln-Cha-Dap(acrylamide)-Leu-Phe-OH] (Ac-Q[Cha][Dap](Acryloyl)LF-OH)
3.7 (± 0.02) kcal/mol
